Source of measurements: patent US8501746B2

Recorded melting point for the following compounds
metric: melting point

>>> result("Cc1nc(-n2ccc(OCc3ccccc3)cc2=O)sc1C(=O)NCc1ccc(F)cc1")
"223 to 225 °C"
>>> result("Cc1nc(-n2ccc(OCCC3CC3)cc2=O)sc1C(=O)NCc1cccnc1")
"170 to 172 °C"
>>> result("Cc1nc(-n2ccc(O)cc2=O)sc1C(=O)NCc1cccnc1")
"238 to 240 °C"
>>> result("COc1ccn(-c2nc(C)c(C(=O)NCc3ccc(F)c(F)c3)s2)c(=O)c1")
"183 to 185 °C"
>>> result("Cc1nc(-n2ccc(COc3ccccc3)cc2=O)sc1C(=O)NCc1ccccc1")
"175 to 177 °C"
>>> result("Cc1nc(-n2ccc(O)cc2=O)sc1C(=O)NCC1CC1")
"240 to 242 °C"
>>> result("Cc1cc(-n2ccc(OCc3ccccc3)cc2=O)sc1C(=O)NCc1ccccc1")
"153 to 154 °C"
>>> result("COc1ccn(-c2nc(C)c(C(=O)NCc3ccccc3)s2)c(=O)c1")
"205 to 208 °C"
>>> result("CCNC(=O)c1sc(-n2ccc(OCc3ccccc3)cc2=O)cc1C")
"158 to 160 °C"
>>> result("Cc1nc(-n2ccc(NCc3ccccc3)cc2=O)sc1C(=O)NCc1ccccc1")
"253 to 255 °C"
>>> result("Cc1nc(-n2cccc(C(F)(F)F)c2=O)sc1C(=O)NCc1ccccc1")
"203 to 204 °C"
>>> result("Cc1nc(-n2ccc(OCCC3CC3)cc2=O)sc1C(=O)NCc1ccc(F)cc1")
"172 to 174 °C"
>>> result("Cc1nc(-n2ccccc2=O)sc1C(=O)NCc1ccccc1")
"180 to 182 °C"
>>> result("Cc1cc(-n2ccc(OCCc3ccccc3)cc2=O)sc1C(=O)NCc1ccccc1")
"159 to 160 °C"
>>> result("Cc1cc(-n2ccc(OCc3ccc(C(F)(F)F)cc3)cc2=O)sc1C(=O)NCc1ccccc1")
"225 to 227 °C"
>>> result("Cc1nc(-n2cccc(O)c2=O)sc1C(=O)NCc1ccccc1")
"225 to 228 °C"
>>> result("CCOC(=O)c1sc(-n2ccc(OCCC3CC3)cc2=O)nc1C")
"188 to 190 °C"
>>> result("Cc1nc(-n2ccc(N3CCNC3=O)cc2=O)sc1C(=O)NCc1ccccc1")
"> 300 °C"

---

metric: melting point

>>> result("Cc1nc(-n2cccc(OCc3ccccc3)c2=O)sc1C(=O)NCc1ccccc1 [Example 3.7]")
"198 to 201 °C"
>>> result("Cc1nc(-n2cccc(C(=O)Nc3ccccc3)c2=O)sc1C(=O)NCc1ccccc1 [Example 3.14]")
"225 to 227 °C"
>>> result("Cc1nc(-n2ccccc2=O)sc1C(=O)NCc1cccnc1 [Example 3.16]")
"218 to 220 °C"
>>> result("Cc1cc(-n2ccc(CCc3ccccc3)cc2=O)sc1C(=O)NCc1ccccc1 [Example 24]")
"145 to 146 °C"
>>> result("Cc1nc(-n2ccc(C3CC3)cc2=O)sc1C(=O)NCc1ccccc1 [Example 19.1]")
"149 to 151 °C"
